- System: cancer cell lines, DetermaIO classes
- assay.notes: Association of PRISM compound sensitivity with DetermaIO (DTIO) cell line classes
- Assay type: cell-based
- measurement.conditions: correlation of PRISM compound sensitivity with DTIO; test cell set (188 cell lines)
Please respond with reported DTIO Corr test for every item in the list.
In your answer, state the number alone without any accompanying words.

In plain terms, Cc1cc(C)cc(C(=O)N(C)[C@H](Cc2ccc(-c3ccccc3)cc2)C(=O)N[C@@H](Cc2c[nH]c3ccccc23)C(=O)O)c1 has a documented DTIO Corr test of 0.02691

In plain terms, CCN1/C(=C/C(C)=O)Sc2ccc(OC)cc21 has a documented DTIO Corr test of −0.05387

In plain terms, C[C@H](N[C@@H](CCc1ccccc1)C(=O)O)C(=O)N1CCC[C@H]1C(=O)O has a documented DTIO Corr test of −0.03184

In plain terms, Nc1cccc(-c2cc3c(Oc4cccc(O)c4)ncnc3[nH]2)c1 has a documented DTIO Corr test of −0.03964

In plain terms, C#Cc1cccc2c1c(C(=O)c1ccc(Cn3c(C)nc4cnccc43)c(F)c1)cn2C(=O)N(C)C has a documented DTIO Corr test of −0.1207

In plain terms, CNC(=O)CN1CCC(Oc2cc3c(Nc4cccc(Cl)c4F)ncnc3cc2OC)CC1 has a documented DTIO Corr test of 0.04159

In plain terms, CCCCCCCC/C=C\CCCCCCCC(=O)NCCc1ccc(O)c(O)c1 has a documented DTIO Corr test of 0.08614

In plain terms, O=C1[C@H](Cc2ccc(O)cc2)N2C(=O)CCN(C(=O)NCc3ccccc3)[C@H]2CN1Cc1cccc2ccccc12 has a documented DTIO Corr test of 0.1635

----------
- Tested on: cancer cell lines, DetermaIO classes
- assay.notes: Association of PRISM compound sensitivity with DetermaIO (DTIO) cell line classes
- Type: cell-based
- measurement.conditions: correlation of PRISM compound sensitivity with DTIO; test cell set (188 cell lines)
result.type: DTIO Corr test
In your answer, state the number alone without any accompanying words.

In plain terms, O=C(O)CNC(=O)c1c(O)c2ccccc2n(Cc2ccccc2)c1=O has a documented DTIO Corr test of −0.06501

In plain terms, CC(C)C[C@H](NC(=O)CNC(=O)[C@H](Cc1ccc(O)cc1)NC(=O)[C@H](CO)NC(=O)[C@H](Cc1c[nH]c2ccccc12)NC(=O)[C@H](Cc1cnc[nH]1)NC(=O)[C@@H]1CCC(=O)N1)C(=O)N[C@@H](CCCNC(=N)N)C(=O)N1CCC[C@H]1C(=O)NCC(N)=O has a documented DTIO Corr test of −0.06774

In plain terms, COc1ccc(Nc2nccc(NCCO)n2)cc1 has a documented DTIO Corr test of −0.07629

In plain terms, NC(=O)c1cccc(-c2cc(Nc3ccc(OC(F)(F)F)cc3)ncn2)c1 has a documented DTIO Corr test of −0.02831

----------
- System: cancer cell lines classified IM, MSL, M
- assay.notes: PRISM screen compound sensitivity correlated with IM, MSL and M subtype of cell lines (101 gene signature)
- Format: cell-based
- measurement.conditions: correlation of PRISM compound sensitivity with MSL subtype correlation; test cell set
result.type: MSL Corr test
In your answer, state the number alone without any accompanying words.

In plain terms, CN(C)CCN1C(=O)c2cccc3cc(NC(N)=O)cc(c23)C1=O has a documented MSL Corr test of −0.03433

In plain terms, COc1cc2nccc(Oc3ccc(NC(=O)Nc4ccc(F)cc4F)c(F)c3)c2cc1OC has a documented MSL Corr test of 0.006054

In plain terms, C[C@@H]1COC(Nc2ccc3ncnc(Nc4ccc(OCc5nccs5)c(Cl)c4)c3c2)=N1 has a documented MSL Corr test of 0.3622

In plain terms, CN[C@@H]1C[C@H]2O[C@@](C)([C@@H]1OC)n1c3ccccc3c3c4c(c5c6ccccc6n2c5c31)C(=O)N[C@H]4O [7-hydroxystaurosporine] has a documented MSL Corr test of 0.09088

In plain terms, C[C@H](Nc1ncnc2[nH]cnc12)c1cc2ccc(F)cc2nc1-c1ccccn1 has a documented MSL Corr test of −0.07748

In plain terms, Cc1ccccc1-n1c(Cn2ncc3c(N)ncnc32)nc2cccc(C)c2c1=O has a documented MSL Corr test of 0.00947

In plain terms, O=[N+]([O-])c1cc(Cl)ccc1S(=O)(=O)N1CCN(Cc2ccccc2)CC1 has a documented MSL Corr test of 0.1269

In plain terms, C/C(=N\NC(=N)N)c1cc(NC(=O)CCCCCCCCC(=O)Nc2cc(/C(C)=N/NC(=N)N)cc(/C(C)=N/NC(=N)N)c2)cc(/C(C)=N/NC(=N)N)c1 has a documented MSL Corr test of −0.0812

In plain terms, CCCCC#Cc1nc(NC)c2ncn([C@@H]3O[C@H](CO)[C@@H](O)[C@H]3O)c2n1 has a documented MSL Corr test of 0.1849

In plain terms, CCN=C1N[C@@H]2[C@@H](O)[C@H](O)[C@@H](CO)O[C@@H]2S1 has a documented MSL Corr test of −0.01406

In plain terms, CCCCC/C=C\C=C\CCCCCCCCC(=O)O has a documented MSL Corr test of 0.00293

In plain terms, CN[C@@H](C)[C@H]1[C@H](O)C[C@@]2(C)[C@@H]3CC[C@H]4C(C)(C)[C@@H](NC)CC[C@@]45C[C@@]35CC[C@]12C has a documented MSL Corr test of 0.04619

In plain terms, CCOC(=O)c1c(C)n(C)c2ccc(O)cc12 [mecarbinate] has a documented MSL Corr test of −0.08851

In plain terms, C=CCn1c(=O)c2cnc(Nc3ccc(N4CCN(C)CC4)cc3)nc2n1-c1cccc(C(C)(C)O)n1 has a documented MSL Corr test of 0.1175

In plain terms, COc1ccccc1N1CCN(CCCCN2C(=O)CCC2=O)CC1 has a documented MSL Corr test of 0.009431

In plain terms, COc1cc(C(=O)c2c(C)oc3c(O)c(OC)ccc23)cc(OC)c1OC has a documented MSL Corr test of −0.09188

In plain terms, N[C@@H]1CCCN(c2c(/C=C3\SC(=O)NC3=O)cccc2-c2ccccc2)C1 has a documented MSL Corr test of 0.004575

In plain terms, CCN(CC)C(=S)[S-].O.O.O.[Na+] [ditiocarb-sodium-trihydrate] has a documented MSL Corr test of −0.01951

In plain terms, COc1ccc(CN2C(=O)C(=O)c3cc(OC(F)(F)F)ccc32)cc1 has a documented MSL Corr test of −0.1511

In plain terms, COc1ccc2nc3c(c(N)c2c1)CCCC3 has a documented MSL Corr test of −0.06604

In plain terms, C=CCNC(=O)c1cc([N+](=O)[O-])cc2c(=O)[nH]c(Nc3ccc(Cl)c(Cl)c3)nc12 has a documented MSL Corr test of 0.2588

In plain terms, O=C(Nc1cccc(Nc2ncc(Br)c(NCCc3cnc[nH]3)n2)c1)N1CCCC1 has a documented MSL Corr test of −0.03732

In plain terms, Cc1ccc(C[N+](C)(C)C)o1.[I-] [5-methylfurmethiodide] has a documented MSL Corr test of 0.0844

In plain terms, N#Cc1c(Oc2ccc(F)c(NC(=O)Cc3cccc(C(F)(F)F)c3)c2)ccc2nc(NC(=O)C3CC3)sc12 has a documented MSL Corr test of 0.04709

In plain terms, Cc1nc(-c2cccnc2)sc1C(=O)Nc1ccccc1-c1cn2c(CN3CCOCC3)csc2n1 has a documented MSL Corr test of −0.08685

In plain terms, N#CSc1cc(SC#N)c(N)nc1N has a documented MSL Corr test of −0.1223

In plain terms, CN(N=O)C(=O)N[C@H]1C(O)O[C@H](CO)[C@@H](O)[C@@H]1O (mixture of isomers) has a documented MSL Corr test of −0.07788

In plain terms, COc1ccc(S(=O)(=O)N2CCCN(S(=O)(=O)c3ccc(OC)c(OC)c3)CC2)cc1OC has a documented MSL Corr test of 0.01577

In plain terms, CC[C@H](C)[C@@H]1NC(=O)[C@H](Cc2ccc(O)cc2)NC(=O)[C@@H](N)CSSC[C@@H](C(=O)N2CCC[C@H]2C(=O)N[C@@H](CC(C)C)C(=O)NCC(N)=O)NC(=O)[C@H](CC(N)=O)NC(=O)[C@H](CCC(N)=O)NC1=O has a documented MSL Corr test of −0.03975

In plain terms, Cc1ccc([N+](=O)[O-])cc1S(=O)(=O)N(C)/N=C/c1cnc2ccc(Br)cn12 has a documented MSL Corr test of 0.07706

In plain terms, Cc1nc(C)c(-c2ccc(C3CCC(CC(=O)O)CC3)cc2)nc1C(N)=O (centres unmarked) has a documented MSL Corr test of 0.08286

In plain terms, CCS(=O)(=O)N(C)[C@H]1c2cc(C#N)ccc2OC(C)(C)[C@@H]1O [chromanol-293B-(−)-[3R,4S]] has a documented MSL Corr test of 0.1021
